Biological target: T1, human IL-2Rγ (recombinant protein and on cells) (human, UniProt P31785 23-262, limits assumed)
T1 construct: recombinant protein and of cells together; also called IL2RG; CD132
T1 sequence: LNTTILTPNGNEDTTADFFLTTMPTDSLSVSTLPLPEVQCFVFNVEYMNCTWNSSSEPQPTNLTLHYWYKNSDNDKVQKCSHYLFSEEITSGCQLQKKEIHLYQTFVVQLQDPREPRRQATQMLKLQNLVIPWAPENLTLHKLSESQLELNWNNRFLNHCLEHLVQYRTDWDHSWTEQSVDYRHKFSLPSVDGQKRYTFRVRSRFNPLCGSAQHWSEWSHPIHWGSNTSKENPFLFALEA
Test: biolayer interferometry (Octet Qk384), antibody captured on anti-human Fc (AHC) sensors, antigen 7.8-500 nM in solution, 1:1 fit, KD = kd/ka
Method: All kinetics measurement experiments were performed on a ForteBio Octet Qk384 instrument using anti-human Fc capture (AHC, 18-5005) sensors. The bispecific heavy chain-only antibodies and antigens were diluted to final concentrations in Kinetics buffer (0.02% Tween20, 0.1% BSA, 0.05% sodium azide, 1X PBS). […] Dissociation was monitored in Kinetics buffer. […] The KD was calculated using the ratio kd/ka.
value_kind: log10(Kd) (log10 of the value in nM)
Could you please treat all values as log10 of Kd in nM?

BsAb-3 (IL2RB_F09G**IL2RG_F16C) (bispecific antibody, human IgG4, V domains shown, Heavy chain-only bispecific on silenced, stabilised human IgG4 Fc, knobs-into-holes, no light chains; not shown: C-terminal His-tag on the knob chain) V domain 1: QVQLQESGPGLVKSSETLSLTCTVSGGSISSSDWWSWVRQPPGKGLEWIGEIDHSGSTNYNPSLMSRVTISVDKSKNQFSLKLSSVTAADTAVYFCARGSWELTDAFDIRGQGTLVTVSS V domain 2: QVQLVESGGGLVKPGGSLRLSCAASGFTFNDYYMSWIRQAPGKGLEWVSHISSSGSTIYYADSVKGRFTVSRDNANNSLYLQMHSLRAEDTAVYYCARGDAVSITGDYRGQGTLVTVSS :: 0.16
BsAb-4 (IL2RB_F09G**IL2RG_F18A) (bispecific antibody, human IgG4, V domains shown, Heavy chain-only bispecific on silenced, stabilised human IgG4 Fc, knobs-into-holes, no light chains; not shown: C-terminal His-tag on the knob chain) V domain 1: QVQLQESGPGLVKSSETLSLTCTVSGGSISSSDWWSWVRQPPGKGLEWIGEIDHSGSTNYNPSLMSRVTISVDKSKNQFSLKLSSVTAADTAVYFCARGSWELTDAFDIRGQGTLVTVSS V domain 2: QVQLVESGGDLVKPGGSLRLSCAASGFTFSDYYMSWLRQAPGKELEWVSHISSSGTTTYYADSVEGRFTITRDNAKNSLYLQMNSLRAEDTAVYYCARGAAVAPGFDSRGQGTLVTVSS :: 0.47
BsAb-1 (IL2RB_F09C**IL2RG_F16A) (bispecific antibody, human IgG4, V domains shown, Heavy chain-only bispecific on silenced, stabilised human IgG4 Fc, knobs-into-holes, no light chains; not shown: C-terminal His-tag on the knob chain) V domain 1: QVQLQESGPGLVKPSGTLSLTCAVSGGSISSSDWWSWVRQPPGKGLEWIGEIDHSGSTNYNPSLMSRVTISVDKSKNQFSLKLSSVTAADTAVYFCGRGSWELSDAFDIRGQGTLVTVSS V domain 2: QVQLVESGGGLVKPGGSLRLSCAASGFTFSDYYMSWIRQAPGKGLEWVSSISSSGDTIYYADSVQGRFTLSRDNAENSLFLQMNSLRAEDTAVYYCARGDAVSITGDYRGQGTLVTVSS :: 0.25
BsAb-6 (IL2RB_F18E**IL2RG_F16A) (bispecific antibody, human IgG4, V domains shown, Heavy chain-only bispecific on silenced, stabilised human IgG4 Fc, knobs-into-holes, no light chains; not shown: C-terminal His-tag on the knob chain) V domain 1: QVQLVESGGGVVQPGRSLRLSCAASGFTFSSYGMHWVRQAPGKEREWVAVISYDGSNKYYTDSVKGRFTISRDNSKNTLYLEMNSLRAEDTAVYYCARDLDYDVLTGDPVGGFDIWGQGTLVTVSS V domain 2: QVQLVESGGGLVKPGGSLRLSCAASGFTFSDYYMSWIRQAPGKGLEWVSSISSSGDTIYYADSVQGRFTLSRDNAENSLFLQMNSLRAEDTAVYYCARGDAVSITGDYRGQGTLVTVSS :: 0.27
BsAb-5 (IL2RB_F09K**IL2RG_F16B) (bispecific antibody, human IgG4, V domains shown, Heavy chain-only bispecific on silenced, stabilised human IgG4 Fc, knobs-into-holes, no light chains; not shown: C-terminal His-tag on the knob chain) V domain 1: QVQLQESSPGLVKPSETLSLTCTVSGGSISSSNWWSWVRQPPGKGLEWIGEISHSGSTNYNPSLKSRVTISVDKSKNQFSLRLSSVTAADTAVYFCGRGSWELTDAFDIRGQGTLVTVSS V domain 2: QVQLVESGGGLVKPGGSLRLSCAASGFTFSDYYMSWIRQAPGKGLEWVSYISSSGSTIYYADSVKGRFTISRDNAKNSLYLQMNSLRAEDTAVYYCARGDAVSITGDYRGQGTLVTVSS :: 1.30

Now consider the entry below.
[in] Entry BsAb-2 (IL2RB_F09G**IL2RG_F16B) (bispecific antibody, human IgG4, V domains shown, Heavy chain-only bispecific on silenced, stabilised human IgG4 Fc, knobs-into-holes, no light chains; not shown: C-terminal His-tag on the knob chain) V domain 1: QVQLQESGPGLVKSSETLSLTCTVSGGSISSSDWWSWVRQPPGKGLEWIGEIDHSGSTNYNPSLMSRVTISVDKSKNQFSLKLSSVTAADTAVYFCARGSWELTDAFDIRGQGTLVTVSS V domain 2: QVQLVESGGGLVKPGGSLRLSCAASGFTFSDYYMSWIRQAPGKGLEWVSYISSSGSTIYYADSVKGRFTISRDNAKNSLYLQMNSLRAEDTAVYYCARGDAVSITGDYRGQGTLVTVSS : reported log10(Kd) = ?
[out] 1.23
